systemName: ScLsb1
assayRemarks: SPOT peptide array binding signal intensity (averaged, normalized) (arbitrary units (background-subtracted, floor 0; scale differs between SH3 domains)); higher = stronger binding of the SH3 domain to the peptide
measurementName: SPOT peptide array binding signal intensity

- binder: "KMSRSPPRPPSLKII"
  valueRelationSign: "="
  observedMeasurement: 39.8
- binder: "RRTRLRPPTPLSQLL"
  valueRelationSign: "="
  observedMeasurement: 63
- binder: "LLLLFVPDSPYDPAI"
  valueRelationSign: "≤"
  observedMeasurement: 0
- binder: "KWVRRPKLMTPLTFS"
  valueRelationSign: "="
  observedMeasurement: 132
- binder: "VKPRQLFPIPLNKVD"
  valueRelationSign: "="
  observedMeasurement: 374
- binder: "LLRRTIPKRPFYHVL"
  valueRelationSign: "="
  observedMeasurement: 44.2
- binder: "NLDRSKISLPDFDDE"
  valueRelationSign: "≤"
  observedMeasurement: 0
- binder: "ANNQGPPNLPARDKS"
  valueRelationSign: "="
  observedMeasurement: 645
- binder: "APKREAPKPPANTSP"
  valueRelationSign: "≤"
  observedMeasurement: 0
- binder: "PKMLPIPSKPTLFDL"
  valueRelationSign: "="
  observedMeasurement: 11.5
- binder: "IPSRPAPKPPSSASA"
  valueRelationSign: "="
  observedMeasurement: 6
- binder: "TKRKRPARLIFYDSK"
  valueRelationSign: "="
  observedMeasurement: 5.5
- binder: "RRRRRPHRIERPLSN"
  valueRelationSign: "="
  observedMeasurement: 11.2
- binder: "KLSRGRYGLPLSSRP"
  valueRelationSign: "="
  observedMeasurement: 89
- binder: "PPPPPPPPPPPLPQS"
  valueRelationSign: "≤"
  observedMeasurement: 0

Taken from the supplement of paper PMC4466140.
